Source listed as paper PMC8847695.

system.name: AAK1 (121-471) (Homo sapiens, UniProt Q2M2I8)
Sequence (Q2M2I8 46-315 limits assumed): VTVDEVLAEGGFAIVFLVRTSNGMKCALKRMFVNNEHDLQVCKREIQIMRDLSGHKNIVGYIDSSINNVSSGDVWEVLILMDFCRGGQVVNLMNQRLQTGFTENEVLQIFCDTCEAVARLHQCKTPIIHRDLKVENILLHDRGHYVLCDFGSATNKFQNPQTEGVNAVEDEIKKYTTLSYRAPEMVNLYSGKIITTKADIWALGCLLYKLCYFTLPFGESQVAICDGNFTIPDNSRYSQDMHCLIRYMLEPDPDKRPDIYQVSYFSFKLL
experimental.protocol: STD-NMR fragment screening, AAK1
Assay type: binding
condition.set: 1 = hit, 0 = no hit
AAK1 (STD-NMR hit flag) overview
Please give the numeric answer without any surrounding text.

The examples below pair each entry with its known result.
# compound, AAK1 (STD-NMR hit flag)
measured = [
    ("Cc1onc(N)c1I [Fragment B02290521]", 1),
    ("O=c1[nH]cc(Cl)cc1[N+](=O)[O-] [Fragment B02290460]", 0),
    ("Cn1nc(Br)c(C(=O)NCC(=O)O)c1N [Fragment B02291252]", 1),
    ("N#Cc1n[nH]cc1Br [Fragment B02290464]", 1),
    ("Oc1coc(O)c1Br [Fragment B02291100]", 0),
]

## Input Reported AAK1 (STD-NMR hit flag) for Nc1ncccc1I [Fragment B02289600] : what is it?
## Output 0

## Input Okay, and Brc1cnn2cccnc12 [Fragment B02289610] ?
## Output 1

## Input Okay, and NCc1cc(Cl)cc(Cl)c1N [Fragment B02290090] ?
## Output 0

## Input Okay, and Nc1ccc(Br)cn1 [Fragment B02291232] ?
## Output 1

## Input Okay, and O=C(O)c1ccc(Cl)c(O)c1 [Fragment B02289615] ?
## Output 0

## Input Okay, and O=C(O)c1nn(Cn2cccn2)cc1Cl [Fragment B02291154] ?
## Output 0

---

system.name: AAK1 (121-471) (Homo sapiens)
experimental.protocol: STD-NMR fragment screening, AAK1
Format: binding
condition.set: 1 mM fragment, 20 µM protein; hit if peak in difference spectrum three times higher than local noise

# compound, system.name, STD-NMR hit
rows = [
    ("Clc1ncnc2cc[nH]c12 [Fragment 9595, 4-chloro-5H-pyrrolo[3,2-d]pyrimidine]", "AAK1 (121-471) (Homo sapiens)", "binds"),
]

---

system.name: AAK1 (Homo sapiens, UniProt Q2M2I8)
experimental.protocol: ITC validation, AAK1
Assay type: binding
condition.set: ITC, SAR analogs of 9595
pKd: −log10 of the molar value.
property.label: pKd

## Input Reported pKd for c1cc2cc[nH]c2cn1 [Fragment A3] : what is it?
## Output < 3.00

---

system.name: AAK1 (121-471) (Homo sapiens)
experimental.protocol: STD-NMR fragment screening, AAK1
Assay type: binding
condition.set: 1 = hit, 0 = no hit
property.label: AAK1 (STD-NMR hit flag)
Please give the numeric answer without any surrounding text.

The examples below pair each entry with its known result.
# compound, AAK1 (STD-NMR hit flag)
rows = [
    ("Oc1cccc(O)c1Br [Fragment B02297401]", 1),
    ("COC(=O)c1cc(N)c(Cl)s1 [Fragment B02297407]", 1),
]

## Input Reported AAK1 (STD-NMR hit flag) for CCOC(Cn1cc(Cl)cn1)OCC [Fragment B02291225] : what is it?
## Output 0

## Input Okay, and O=C(O)c1cnc(Cl)cn1 [Fragment B02291251] ?
## Output 0

---

system.name: CAMK1G (1-320) (Homo sapiens)
Construct: made in house; host or cells: E. coli BL21 (DE3) pLysS
experimental.protocol: STD-NMR fragment screening, CAMK1G
Assay type: binding
condition.set: 1 = hit, 0 = no hit
property.label: CAMK1G (STD-NMR hit flag)
Please give the numeric answer without any surrounding text.

# compound, CAMK1G (STD-NMR hit flag)
records = [
    ("Clc1cnccn1", 0),
]

--- query ---
## Input Reported CAMK1G (STD-NMR hit flag) for O=C(O)c1ccc(Cl)cn1 : what is it?
## Output 0

---

system.name: AAK1 (121-471) (Homo sapiens)
experimental.protocol: STD-NMR fragment screening, AAK1
Type: binding
condition.set: 1 = hit, 0 = no hit
Procedure: All fragments were stored at −20°C as solids in argon flushed glass bottles. For NMR screening, fragments were weighed and dissolved in DMSO-d6 to a stock concentration of 300 mM. Mother plates were prepared with a 100 mM concentration. […] Fifteen of these compounds contain the same halogen twice. […] As fragment mixtures can lead to competitive effects between their fragments, it is not advised to use the quantification of peak mixtures for hit ranking.
property.label: AAK1 (STD-NMR hit flag)

# structure.as.smiles, system.name, value.reported
measured = [
    ("COCn1nc(Br)nc1C(N)=O", "AAK1 (121-471) (Homo sapiens)", 1),
    ("Brc1cnc2[nH]nnc2c1", "AAK1 (121-471) (Homo sapiens)", 0),
    ("Nc1ccc2[nH]cnc2c1Br", "AAK1 (121-471) (Homo sapiens)", 1),
    ("Cc1nn(CC(=O)O)c(C)c1Cl", "AAK1 (121-471) (Homo sapiens)", 0),
    ("Cc1ccc(C(N)=O)c(Cl)n1", "AAK1 (121-471) (Homo sapiens)", 1),
]

--- query ---
## Input Reported AAK1 (STD-NMR hit flag) for O=c1[nH]c2ccc(Cl)nc2[nH]1 : what is it?
## Output 1

---

system.name: AAK1 (121-471) (Homo sapiens, UniProt Q2M2I8)
experimental.protocol: STD-NMR fragment screening, AAK1
Assay type: binding
condition.set: 1 = hit, 0 = no hit
AAK1 (STD-NMR hit flag) overview

The examples below pair each entry with its known result.
# compound, AAK1 (STD-NMR hit flag)
measured = [
    ("O=S(=O)(CCO)c1n[nH]c(Cl)n1", 0),
    ("Clc1ccncc1", 0),
    ("OCc1ccc(Cl)nc1", 0),
    ("[O-][n+]1ccc(Cl)cc1", 0),
    ("Clc1nsnc1N1CCOCC1", 0),
    ("Fc1ncccc1I", 0),
    ("OCc1c(Cl)nc2sccn12", 1),
    ("CC(=O)Nc1ccc(Cl)c(C(=O)O)n1", 0),
]

## Input Reported AAK1 (STD-NMR hit flag) for CS(=O)(=O)c1ncc(Cl)c(C(=O)O)n1 : what is it?
## Output 0

## Input Okay, and Nc1nc(Cl)c(NC=O)c(Cl)n1 ?
## Output 0

## Input Okay, and O=c1ncc(Cl)c[nH]1 ?
## Output 0

## Input Okay, and Cn1c(Cl)cc(=O)n(C)c1=O ?
## Output 1

## Input Okay, and Fc1cc(C2CNCCN2)c(Cl)cc1Cl (stereo not shown) ?
## Output 0

---

system.name: CAMK1G (1-320) (Homo sapiens, UniProt Q96NX5)
Construct: made in house; host or cells: E. coli BL21 (DE3) pLysS
Sequence (Q96NX5 1-320): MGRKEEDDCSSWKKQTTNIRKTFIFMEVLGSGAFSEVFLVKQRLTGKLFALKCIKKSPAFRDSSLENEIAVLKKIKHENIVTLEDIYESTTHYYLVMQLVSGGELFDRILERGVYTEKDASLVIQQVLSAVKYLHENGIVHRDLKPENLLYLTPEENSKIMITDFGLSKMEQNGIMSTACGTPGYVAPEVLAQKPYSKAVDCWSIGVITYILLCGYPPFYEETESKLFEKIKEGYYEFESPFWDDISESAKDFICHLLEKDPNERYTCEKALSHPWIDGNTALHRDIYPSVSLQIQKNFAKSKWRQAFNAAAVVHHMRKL
experimental.protocol: STD-NMR fragment screening, CAMK1G
Assay type: binding
condition.set: 1 = hit, 0 = no hit
property.label: CAMK1G (STD-NMR hit flag)
Please give the numeric answer without any surrounding text.

The examples below pair each entry with its known result.
# structure.as.smiles, value.reported
rows = [
    ("Cc1c(Cl)c([N+](=O)[O-])nn1CC(=O)O", 0),
    ("NCc1cc(Cl)c2c(c1)OCCCO2", 0),
]

--- query ---
## Input Reported CAMK1G (STD-NMR hit flag) for COC(=O)c1cc(N)c(Cl)s1 : what is it?
## Output 0

---

system.name: AAK1 (121-471) (Homo sapiens)
experimental.protocol: STD-NMR fragment screening, AAK1
Type: binding
condition.set: 1 = hit, 0 = no hit
property.label: AAK1 (STD-NMR hit flag)
Please give the numeric answer without any surrounding text.

The examples below pair each entry with its known result.
# structure.as.smiles, AAK1 (STD-NMR hit flag)
rows = [
    ("Nc1ccc2[nH]nc(Br)c2c1", 0),
    ("O=C1Nc2cccc(Cl)c2C1=O", 0),
    ("Clc1cncc(-n2cccn2)n1", 1),
]

--- query ---
## Input Reported AAK1 (STD-NMR hit flag) for Brc1csc(CN2CCNCC2)c1 : what is it?
## Output 0

---

system.name: CAMK1G (1-320) (Homo sapiens, UniProt Q96NX5)
Construct: made in house; host or cells: E. coli BL21 (DE3) pLysS
experimental.protocol: STD-NMR fragment screening, CAMK1G
Assay type: binding
condition.set: 1 = hit, 0 = no hit
property.label: CAMK1G (STD-NMR hit flag)
Please give the numeric answer without any surrounding text.

## Input What is its CAMK1G (STD-NMR hit flag) for CAMK1G (1-320) (Homo sapiens, UniProt Q96NX5)? Entry: Nc1ccc2[nH]nc(Br)c2c1
## Output 1

## Input Okay, and CCn1ncc(Br)c1C(N)=O ?
## Output 1

## Input Okay, and Cc1ccc(C(N)=O)c(Cl)n1 ?
## Output 0

## Input Okay, and [O-][n+]1ccc(Cl)cc1 ?
## Output 0

## Input Okay, and CC(=O)Nc1ccc(Cl)c(C(=O)O)n1 ?
## Output 0
